System: erythrocyte
Assay type: cell-based
Conditions: 175 μM; 37° C., 1 h
METRIC NAME: Haemolytic assay (%)
Report only the number, with the unit % understood.

Can you share its Haemolytic assay (%)? I mean this compound: CCCCCCCCCCCCCCCC[P+](CCCC)(CCCC)CCCC
32

Now this one: CCCCCCCCCCCCCCCC[N+](CCCC)(CCCC)CCCC
75

Now this one: CCCC[P+](CCCC)(CCCC)CCCCCCCCCCCC[P+](CCCC)(CCCC)CCCC
0

Others:
Can you share its Haemolytic assay (%)? I mean this compound: CCCC[N+](CCCC)(CCCC)CCCCCCCCCCCC[N+](CCCC)(CCCC)CCCC
5

---

Form field: Cytosolic LPTA activity, percentage of the control (one value per entry).
Tested on: cytosolic phospholipase B (LPL/LPTA activities)
Assay: Radiometric assay, cytosolic LPL/LPTA activities
Format: biochemical, Cryptococcus neoformans H99
Settings: pH 4.0; modifier 10 mM (Triton X-100 0.1% w/v)
Report only the number, with the unit % understood.

Can you share its Cytosolic LPTA activity, percentage of the control? I mean this compound: [Cl][Fe]([Cl])[Cl] [FeCl3]
78

Now this one: O=C(O)CN(CCN(CC(=O)O)CC(=O)O)CC(=O)O [EDTA, ethylenediaminetetraacetic acid]
100

Now this one: [Mg+2] [Magnesium]
70

Now this one: [Ca+2] [Calcium]
100

Now, please, on to the next compound.
Can you share its Cytosolic LPTA activity, percentage of the control? I mean this compound: O=C(O)CN(CCOCCOCCN(CC(=O)O)CC(=O)O)CC(=O)O [EGTA, ethyleneglycoldiamine tetraacetic acid]
88

---

Test system: Cryptococcus neoformans ATCC 90112
Assay: Antifungal susceptibility testing, microdilution MIC
Format: cell-based
Settings: Cryptococcus neoformans, ATCC90112; Table 7; read-out: MIC (μM) Crypto. (ATCC 90112)
Form field: MIC (one value per entry).
Report only the number, with the unit µM understood.

Identify the measured MIC of CCCC[N+](CCCC)(CCCC)CCCCCCCCCCCC[N+](CCCC)(CCCC)CCCC for Cryptococcus neoformans ATCC 90112.
2.5

Now this one: CCCC[N+](CCCC)(CCCC)CCCCCCCCCCC[N+](CCCC)(CCCC)CCCC
22

Now this one: C(CCCCCC[N+]12CCC(CC1)CC2)CCCCC[N+]12CCC(CC1)CC2
350

Others:
Identify the measured MIC of C[N+]1(CCCCCCCCCCCC[N+]2(C)CCOCC2)CCOCC1 for Cryptococcus neoformans ATCC 90112.
44

Now this one: CCCC[N+](CCCC)(CCCC)CCCCCCCCCCCCCCCC[N+](CCCC)(CCCC)CCCC [1,16-bis-(tributylammonium)hexadecane]
2.2

Now this one: CCCC[P+](CCCC)(CCCC)CCCCCCCCCCCC[P+](CCCC)(CCCC)CCCC [Compound 1]
2.5

---

System: secreted phospholipase B (PLB activity)
Assay: Radiometric assay, secreted PLB activity
Type: biochemical, Cryptococcus neoformans H99
Details: 25 μM
Form field: PLB assay (% inhibition) (one value per entry).

Sample records with PLB assay (% inhibition):
Can you share its PLB assay (% inhibition)? I mean this compound: CCCC[N+](CCCC)(CCCC)CCCCCCCCCCCCCCCC[N+](CCCC)(CCCC)CCCC [1,16-bis-(tributylammonium)hexadecane]
48%

Now this one: CCCC[N+](CCCC)(CCCC)CCCCCCCCCCCC[N+](CCCC)(CCCC)CCCC
65%

Now, please, on to the next compound.
Can you share its PLB assay (% inhibition)? I mean this compound: CCCC[P+](CCCC)(CCCC)CCCCCCCCCCCC[P+](CCCC)(CCCC)CCCC [Compound 1]
35%
